# Test system: SR
# Assay comment: NCI tumour cell line growth inhibition, 48 h
The source made the active and inactive calls. Cut-off read from the data, not from the text of the source: active = GI50 up to about 1.1 µM and inactive = higher.
In this exercise, the only acceptable responses are Y = active, N = inactive

Here are 3 compounds together with their reported answers.
COc1ccc(N2C(=O)C3c4[nH]c5ccc(Br)cc5c4C4CCC(C(C)(C)C)CC4C3C2=O)cc1 (stereo not given) | N
O=C(NC(=O)c1cn(CCNCCO)c(=O)[nH]c1=O)OCc1ccccc1 | N
NC(=O)CCC(NC(=O)c1cccc2c(=O)c3ccccc3[nH]c12)C(=O)O (stereo not given) | N

// query In this assay, the call recorded for O=C1CCCCC/C1=C\c1ccc(Cl)cc1 was what?
// result N

// query In this assay, the call recorded for Cc1ccc(/N=N/c2c(O)c(C(=O)O)cc3ccccc23)cc1C was what?
// result N

// query In this assay, the call recorded for Cc1ccc(S(=O)(=O)NC(=O)Nc2nnc(S(N)(=O)=O)s2)cc1 was what?
// result N

// query In this assay, the call recorded for Cc1ccnc2sc3ccccc3c(=O)c12 was what?
// result N

Each recorded value in this set is attributed to ChEMBL document CHEMBL1201862.
